# measurementTarget: HLA-A*68:02
# assayText: IEDB peptide-MHC binding, cellular MHC/competitive/fluorescence; bounds were set here for any values at or beyond the usual limits of such assays
# testConditions: source organism: Vaccinia virus WR
pIC50: −log10 of the molar value.
Entries annotated with measured pIC50
measuredQuantity: pIC50

1. FLDWIKDIM    4.57
2. TQVKELGIA    4.63
3. TLLNETAKVI    5.20
4. FLVIAINAM    4.63
5. YVHSLLYSSM    5.14

###

# measurementTarget: HLA-A*02:02
# assayText: IEDB peptide-MHC binding, purified MHC/competitive/radioactivity; bounds were set here for any values at or beyond the usual limits of such assays
# testConditions: source organism: Vaccinia virus WR
Response field label: string, one of y (IC50 strictly below 0.6 µM) or n.

1. SLVITYCLV    n
2. YALEPRKEI    n
3. TILATLNTLI    y
4. ELPYVGDTSM    n
5. IISYIILFIL    y
6. YIILFILFFA    y
7. RIYCSLFKNV    n
8. CLTVPNITI    y
9. VQLSNNKYVL    y
10. IMSMMNITRL    y
11. VLQQNNSFI    y
12. AVKFAEESYT    n
13. NMCNSDVSV    y
14. IVYGRSNAIL    y
15. KLFKRERDAI    y
16. TQSGALEVLM    n
17. IVNTTYDFLA    n
18. TLPELNLSL    y
19. RAFIYSIMET    y
20. DVDIPTFNSL    n
21. GTGILFMEM    n
22. CVDHPFIYVI    n
23. IVFGIYKDNL    y
24. PMSRLFMDEI    n
25. KLKVDSDSGL    y
26. STYPGNTFV    y
27. QVLQQNNSFI    y
28. GLRQQLEDI    y
29. KLLNMRDLI    y
30. ELIDVLKTRL    y
31. LIFNVKSKLL    n
32. VMHINSPFKV    y
33. IALALEQYGI    n
34. SVQLSNNKYV    n
35. KQYDSTDFKM    y
36. AMHDKKIDIL    y
37. DIKYDNKLL    n
38. MAAAKTPVI    y
39. TLISSDGARV    y
40. ALKAYFTAKI    y
41. LMDSIFVSTM    y
42. LITNTKSDNI    n
43. SLALKNSQA    n
44. MLNRVQILM    y
45. ATFRDMLLNV    y
46. FMEEEIKAEM    n
47. PLISILMIFI    y
48. EVERLMELPV    n
49. NTIDKSSPL    y
50. KVIKLVKSL    y
51. YIENTNQGNI    n
52. SVDVDIYDA    n
53. ILDNLRCHSA    n
54. SQFSYKELYV    y
55. LLWFLTGTFV    y
56. SMYVIPDEL    y
57. WLRAKRKPAM    n
58. TIDNIVTSL    y
59. KVTVPTNDHI    n
60. IMRVMANNV    y
61. DVFRPLFDFV    n
62. LATLNTLITL    y
63. KTDGAVTSPL    y
64. PIPMSRLFM    n
65. NIPELKHGLL    n
66. DMLLNVQTLI    y
67. QLYTISSESL    y
68. KLLYAAEMV    y
69. TLIQYRQQL    y
70. KIKQTGINNV    y
71. KASTISWMM    y
72. ELKDLLNVT    n
73. FVYVSVMNFI    y
74. SILSLETVKM    y
75. SIAMLKSKNI    n
76. SMYGKAFNHA    y
77. VMYAFTTPL    y
78. TVLTSVDIET    n
